Assign bioavailability to each entry below.
- RUN_DESCRIPTION: Oral bioavailability in rat at 10 mg/kg
- Format: ADME, organism-based
- RECORDED_CONDITIONS: in vivo
Give bare numbers, in %.

> print(dat)
                              smiles.string  unit.descriptor  reported
1  COc1cc(/C=C2\CCCN3C2=NOC[C@@H]3c2cc(F)c(F)c(F)c2)ccc1-n1cnc(C)c1                %       100

Next up:
Input line: Determine its reported bioavailability: COc1cc(/C=C2\CCCN3C2=NO[C@]3(CO)c2ccc(F)cc2)ccc1-n1cnc(C)c1
Output line: 98

###

Answer each item with its documented clearance.
- RUN_DESCRIPTION: Clearance in dog at 3 mg/kg, iv
- Format: ADME, organism-based, Canis lupus familiaris
- Set-up: dose 3 mg/kg, route intravenous
- RECORDED_CONDITIONS: in vivo
Numbers only, in mL/min/kg.

> print(dat)
                              smiles.string  reported
1  COc1cc(/C=C2\CCCN3C2=NOC[C@@H]3c2cc(F)c(F)c(F)c2)ccc1-n1cnc(C)c1         9

Consider the additional compound presented here.
Input line: Give recorded clearance. COc1cc(/C=C2\CCCN3C2=NO[C@]3(CO)c2ccc(F)cc2)ccc1-n1cnc(C)c1
Output line: 5

###

- RUN_DESCRIPTION: AUC in monkey at 10 mg/kg, po
- Assay type: ADME, organism-based, Macaca mulatta
- Set-up: dose 10 mg/kg, route oral
- RECORDED_CONDITIONS: rhesus monkey, plasma
Could you please report measured AUC for the items listed next?
Numbers only, in µM·h.

Some compounds with known AUC results, for comparison:
> print(dat)
                                   compound  reported
1  COc1cc(/C=C2\CCCN3C2=NO[C@]3(CO)c2ccc(F)cc2)ccc1-n1cnc(C)c1        30
2  COc1cc(/C=C2\CCCN3C2=NOC3(C)c2ccc(F)cc2)ccc1-n1cnc(C)c1 (single isomer, unassigned)        30

Input line: State, in one line, measured AUC of COc1cc(/C=C2\CCCN3C2=NOC[C@@H]3c2cc(F)c(F)c(F)c2)ccc1-n1cnc(C)c1
Output line: 11

###

- RUN_DESCRIPTION: Ratio of drug level in brain to plasma in CD rat at 3 mg/kg, po after 3 hrs
- Type: ADME, organism-based
- Set-up: dose 3 mg/kg, route oral
- RECORDED_CONDITIONS: read-out: BPR
EXPERIMENTAL_ENDPOINT: Kp at 3 h
Numbers only.

Input line: Quote Kp at 3 h reported for COc1cc(/C=C2\CCCN3C2=NOC[C@@H]3c2cc(F)c(F)c(F)c2)ccc1-n1cnc(C)c1 please.
Output line: 0.49

###

- SYSTEM_NAME: Gamma-secretase
- RUN_DESCRIPTION: Modulation of gamma-secretase-mediated cleavage of human APP Swedish and London mutation expressed in HEK293 cells assessed as reduction of total amyloid beta level after 5 hrs by sandwich immunoassay
- Type: cell-based
EXPERIMENTAL_ENDPOINT: pIC50
Give bare numbers, as −log10 of the molar value.

> print(dat)
                                   compound      system.name  reported
1  COc1cc(/C=C2\CCCN3C2=NOC3(CO)c2ccc(F)cn2)ccc1-n1cnc(C)c1 (single isomer, unassigned)  Gamma-secretase      4.71
2  COc1cc(/C=C2\CCCN3C2=NOC3(CO)c2cc(F)cc(F)c2)ccc1-n1cnc(C)c1 (single isomer, unassigned)  Gamma-secretase      5.17
3  COc1cc(/C=C2\CCCN3C2=NO[C@]3(CO)c2ccc(F)cc2)ccc1-n1cnc(C)c1  Gamma-secretase      4.85

Alright, here's another compound for you.
Input line: Give pIC50 for COc1cc(/C=C2\CCCN3C2=NOC3(CO)c2cc(F)c(F)c(F)c2)ccc1-n1cnc(C)c1 (single isomer, unassigned) tested on Gamma-secretase.
Output line: 4.80
